target: GLP-1 receptor (UniProt P43220 24-463, limits assumed); experiment: cell-based or functional assay
Non-standard residues stand in square brackets, D forms with d. No end group written: not given here. *: point of attachment. Myristoyl = CCCCCCCCCCCCCC(=O)*; DMIA = not defined here
Exercise: state measured pEC50 for each of the binders provided.
Give bare numbers, as −log10 of the molar value.

// below: answered binders
>  <binder>
HXQGTFTSDKSKYLDERRAKDFVQWLMNT (d-Ser at 2; Lys 10-C18 acyl; C-terminal amide) [dS2, E16/K20, K10(C18) Gluc Amide]

>  <pEC50>
10.60

$$$$
>  <binder>
HXQGTFTSDKSKYLDERRAKDFVQWLMNT (d-Ser at 2; Lys 10-C16 acyl; C-terminal amide) [dS2, E16/K20, K10(C16) Gluc Amide]

>  <pEC50>
10.39

$$$$

Each binder below has a reported value. Please supply its pEC50.
1. [DMIA]SQGTFTSDK(Myristoyl)SKYLDERRAKDFVQWLMNT-NH2 (reading uncertain) [DMIA1, K10(C14), [E16/K20]-Gluc Amide]
2. XSQGTFTSDKSKYLDERRAKDFVQWLMNT (DMIA at 1; Lys 10-C18 acyl; [E16/K20]; C-terminal amide) [DMIA1, K10(C18), [E16/K20]-Gluc Amide]
3. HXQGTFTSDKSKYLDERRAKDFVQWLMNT (d-Ser at 2; Lys 10-C14 acyl; C-terminal amide) [dS2, E16/K20, K10(C14) Gluc Amide]

1: 10.30; 2: 10.96; 3: 9.89
